- Test system: U2OS
- EXPERIMENT_DESCRIPTION: Multiplex assay against U2OS
- Assay type: toxicity, cell-based
- CONDITION: human, 12 h, 1 µM, compound concentration 1 uM, replicate 1
RESULT_TYPE: Population Healthy Nuclei (%)

1. Cc1ccc(OCC(O)C(C)NC(C)C)c2c1CCC2.Cl (centres undefined): 66
2. N[C@](CC1c2ccccc2Oc2ccccc21)(C(=O)O)[C@H]1C[C@@H]1C(=O)O: 67
3. COc1cc2nc(N3CCN(C(=O)c4ccco4)CC3)nc(N)c2cc1OC.Cl [PRAZOSIN HYDROCHLORIDE]: 70
4. O=C(NCCNCC(O)COc1ccc(O)cc1)N1CCOCC1.O=C(NCCNCC(O)COc1ccc(O)cc1)N1CCOCC1.O=C(O)/C=C/C(=O)O (centres undefined) [XAMOTEROL FUMARATE]: 66
5. Cc1cc(NC(=O)NCCN2CCC(O)(Cc3ccccc3)CC2)c2ccccc2n1 [PALOSURAN]: 65
6. Nc1nc(CC(=O)Nc2ccc(CCNC[C@H](O)c3ccccc3)cc2)cs1 [MIRABEGRON]: 62
7. O=c1nc2[nH]c3ccccc3nc-2c(=O)[nH]1 [ALLOXAZINE]: 61
8. S=C(NCCCc1c[nH]cn1)NCCCN(Cc1ccc(Cl)c(Cl)c1)c1ccc(Br)cn1: 63
9. COc1cc(C(=O)N2CC[C@@H](O)[C@@H](N)C2)cc2nc(-c3cc4ccccc4n3CC3CC3)n(C)c12.Cl: 53

----------
Attribute: Population Tubulin-Different-Phenotype (%)
- System: HEK-293T
- EXPERIMENT_DESCRIPTION: Multiplex assay against HEK293T
- Type: toxicity, cell-based
- CONDITION: human, 48 h, 1 µM, compound concentration 1 uM, replicate 1
Non-standard residues stand in square brackets, D forms with d. Residues, ends and D or L forms follow the SMILES beside them.
RESULT_TYPE: Population Tubulin-Different-Phenotype (%)

1. Cc1cc(=O)n(C)c2cc(N3C(=O)CC[C@H](NS(=O)(=O)CC(C)C)[C@H]3c3ccc(Cl)cc3)ccc12: 15
2. CC(C)C[C@@H]1NC(=O)[C@@H](C(C)C)NC(=O)[C@@H]2CCCN2C(=O)[C@@H](CC(=O)O)NC(=O)[C@@H](Cc2c[nH]c3ccccc23)NC1=O [BQ-123] (cyclo(L[dW][dD]P[dV])): 15
3. Cc1cc(NC(=O)NCCN2CCC(O)(Cc3ccccc3)CC2)c2ccccc2n1: 12
4. CSc1nc(NC2CCCC2)c([N+](=O)[O-])c(NC2CCCC2)n1: 22
5. COc1c(Nc2ccc(S(C)(=O)=O)nc2C)ncnc1OC1CCN(C(=O)OC(C)C)CC1: 13
6. CN1CCC(C(=O)c2cccc(NC(=O)c3c(F)cc(F)cc3F)n2)CC1: 12
7. COc1cc(OC2CCN(C(C)=O)CC2)ccc1C(=O)N1CCC(N2C(=O)OCc3ccccc32)CC1: 13
8. O=C(Nc1cc(-c2ccccc2)nn1-c1ccccc1F)c1ccc([N+](=O)[O-])cc1: 9

----------
- Test system: HEK-293T
- EXPERIMENT_DESCRIPTION: Multiplex assay against HEK293T
- Assay type: toxicity, cell-based
- CONDITION: human, 48 h, 1 µM, compound concentration 1 uM, replicate 1
Non-standard residues stand in square brackets, D forms with d. Residues, ends and D or L forms follow the SMILES beside them.
Attribute: Population Membrane Permeable-Phenotype (%)
RESULT_TYPE: Population Membrane Permeable-Phenotype (%)

1) O=C(O)CCC/C=C\CC1C(O)CC(O)C1/C=C/C(O)COc1cccc(Cl)c1 (configuration not stated) [CLOPROSTENOL]: 1
2) CN1CCN(c2ccc(Nc3c4ccccc4nc4ccccc34)cc2)CC1.Cl.Cl.O: 0
3) CC(C)C[C@@H]1NC(=O)[C@@H](C(C)C)NC(=O)[C@@H]2CCCN2C(=O)[C@@H](CC(=O)O)NC(=O)[C@@H](Cc2c[nH]c3ccccc23)NC1=O [BQ-123] (cyclo(L[dW][dD]P[dV])): 0
4) COc1c(Nc2ccc(S(C)(=O)=O)nc2C)ncnc1OC1CCN(C(=O)OC(C)C)CC1 [ADP-597]: 0
5) COc1ccc2c(c1OCc1ccccc1)C[C@@H](C(=O)O)N(C(=O)C(c1ccccc1)c1ccccc1)C2 [OLODANRIGAN]: 0
6) Nc1nc(-c2ccco2)c2cnn(Cc3ccccc3F)c2n1: 1
7) COC(c1ccccc1)(c1ccccc1)[C@H](Oc1nc(C)cc(C)n1)C(=O)O [AMBRISENTAN]: 3
